tested on: U87 MG (malignant glioma cell); experiment: MTT growth inhibition of human solid tumor cells, 72 h; format: cell-based
MEASUREMENT KIND: IC50 U87 MG (µg/mL)
Give the quantity in µg/mL, number only.

Worked examples follow.
{"ITEM SMILES": "COC(=O)C[C@](O)(CCCC(C)(C)OC(=O)c1cnoc1C)C(=O)O[C@@H]1C(OC)=C[C@]23CCCN2CCc2cc4c(cc2[C@H]13)OCO4", "U": "µg/mL", "MEASURED": 0.31}
{"ITEM SMILES": "COC(=O)C[C@@](CCCC(C)(C)OC(=O)c1ccccc1)(OC(=O)c1ccccc1)C(=O)O[C@@H]1C(OC)=C[C@]23CCCN2CCc2cc4c(cc2[C@H]13)OCO4", "U": "µg/mL", "MEASURED": 2}
{"ITEM SMILES": "COC(=O)C[C@](O)(CCCC(C)(C)OC(=O)C1CCCCC1)C(=O)O[C@@H]1C(OC)=C[C@]23CCCN2CCc2cc4c(cc2[C@H]13)OCO4", "U": "µg/mL", "MEASURED": 0.009}
{"ITEM SMILES": "COC(=O)C[C@@](CCCC(C)(C)OC(=O)c1scnc1C)(OC(=O)c1scnc1C)C(=O)O[C@@H]1C(OC)=C[C@]23CCCN2CCc2cc4c(cc2[C@H]13)OCO4", "U": "µg/mL", "MEASURED": 0.67}

Pending compound:
Annotate the compound COC(=O)C[C@@](CCCC(C)(C)OC(=O)/C=C/c1ccco1)(OC(=O)/C=C/c1ccco1)C(=O)O[C@@H]1C(OC)=C[C@]23CCCN2CCc2cc4c(cc2[C@H]13)OCO4 with its measured IC50 U87 MG.
0.16

###

Listing of recorded IC90 by entry.
system: Hela (human cervical cancer cell); assay: MTT growth inhibition of human solid tumor cells, 72 h; type: cell-based; conditions: Homo sapiens, HeLa, MTT
Give the quantity in µg/mL, number only.

Worked examples follow.
{"COMPOUND": "COC(=O)C[C@](O)(CCCC(C)(C)OC(=O)C1CC1)C(=O)O[C@@H]1C(OC)=C[C@]23CCCN2CCc2cc4c(cc2[C@H]13)OCO4", "TESTED SYSTEM": "Hela (human cervical cancer cell)", "MEASUREMENT KIND": "IC90", "MEASURED": 16}
{"COMPOUND": "COC(=O)C[C@@](CCCC(C)(C)OC(=O)c1cccs1)(OC(=O)c1cccs1)C(=O)O[C@@H]1C(OC)=C[C@]23CCCN2CCc2cc4c(cc2[C@H]13)OCO4", "TESTED SYSTEM": "Hela (human cervical cancer cell)", "MEASUREMENT KIND": "IC90", "MEASURED": 11.5}

Annotate the compound COC(=O)C[C@](O)(CCCC(C)(C)OC(=O)Cc1ccccc1)C(=O)O[C@@H]1C(OC)=C[C@]23CCCN2CCc2cc4c(cc2[C@H]13)OCO4 with its measured IC90.
12.6

###

system: Becap37 (human breast cancer cell); experiment: MTT growth inhibition of human solid tumor cells, 72 h; type: cell-based; details: Homo sapiens
Listing of recorded log10 of IC50 by entry.
Form field - Quantity: IC50; Unit: µg/mL; Scale: log10

Worked examples follow.
{"MOLECULE": "COC(=O)C[C@](O)(CCCC(C)(C)OC(=O)C1CC1)C(=O)O[C@@H]1C(OC)=C[C@]23CCCN2CCc2cc4c(cc2[C@H]13)OCO4 [BS-HH-062]", "TESTED SYSTEM": "Becap37 (human breast cancer cell)", "MEASURED": -1.85}
{"MOLECULE": "COC(=O)C[C@](O)(CCCC(C)(C)OC(=O)Cc1ccccc1)C(=O)O[C@@H]1C(OC)=C[C@]23CCCN2CCc2cc4c(cc2[C@H]13)OCO4 [BS-HH-074]", "TESTED SYSTEM": "Becap37 (human breast cancer cell)", "MEASURED": -2.52}
{"MOLECULE": "COC(=O)C[C@@](CCCC(C)(C)OC(C)=O)(OC(C)=O)C(=O)O[C@@H]1C(OC)=C[C@]23CCCN2CCc2cc4c(cc2[C@H]13)OCO4 [BS-HH-001, 2,6-diacetylhomoharringtonine]", "TESTED SYSTEM": "Becap37 (human breast cancer cell)", "MEASURED": -1.82}
{"MOLECULE": "COC(=O)C[C@@](CCCC(C)(C)OC(=O)c1cccs1)(OC(=O)c1cccs1)C(=O)O[C@@H]1C(OC)=C[C@]23CCCN2CCc2cc4c(cc2[C@H]13)OCO4 [BS-HH-0572]", "TESTED SYSTEM": "Becap37 (human breast cancer cell)", "MEASURED": -0.70}

Pending molecule:
Annotate the molecule COC(=O)C[C@](O)(CCCC(C)(C)O)C(=O)O[C@@H]1C(OC)=C[C@]23CCCN2CCc2cc4c(cc2[C@H]13)OCO4 [HHT, reference compound] with its measured log10 of IC50.
-2.00
